System: M14 melanoma
Assay: NCI-60 one-dose screen, 48 h (100 = growth as untreated, 0 = no growth, -100 = all killed)
Details: 10 µM unless noted
The panel holds about 83,000 compounds, 20% with a hit somewhere; the sample as a whole holds those more often.

- INPUT SMILES: "CCOC(=O)c1cccnc1Nc1ccc(NC(=O)Nc2ccc(Cl)c(C(F)(F)F)c2)cc1"
  growth, %: 42.7
- INPUT SMILES: "CN1CCN(Cc2ccc(NC(=O)c3cncc(C#Cc4cnc5ccc(OCC6COC6)nn45)c3)cc2C(F)(F)F)CC1"
  growth, %: -86.8
- INPUT SMILES: "Clc1ccc2[nH]cc(-c3cncn3CCc3ccc4c(c3)OCO4)c2c1"
  growth, %: 78.8
- INPUT SMILES: "C/C(=N\\NC(=O)Nc1ccccc1)c1nnn(-c2ccc([N+](=O)[O-])cc2)c1C"
  growth, %: 105
- INPUT SMILES: "Cn1ncc2ncc(-c3ccc4ncc(C#N)c(N5CCc6cc(F)c(Cl)cc65)c4c3)cc21"
  growth, %: 44.9
- INPUT SMILES: "Cc1ccc(-c2nc(SCC(=O)c3ccccc3)nc(Nc3ccc(S(N)(=O)=O)cc3)c2C#N)cc1"
  growth, %: 36.7
- INPUT SMILES: "Cc1ccc(C)c(NC2=C(Cl)C(=O)c3nc(C)ccc3C2=O)c1"
  growth, %: -55.8
- INPUT SMILES: "CCc1cc(OC(=O)N2CCN(CCC(C)(COC(C)(C)C)COC(C)(C)C)CC2)ccc1Nc1cc(-c2ccc(-n3cccn3)cc2)[nH]n1"
  growth, %: 97.6
- INPUT SMILES: "COC(=O)N1CCN(CCNCc2ccc(NC(=O)c3ccc(C)c(C#Cc4cnc5cccnn45)c3)cc2C(F)(F)F)CC1"
  growth, %: 8.75
- INPUT SMILES: "COc1ccc2c(c1)c(-c1nn3cc(-c4ccncc4)nc3s1)cn2C"
  growth, %: 107
- INPUT SMILES: "C#C[C@]1(O)CC[C@H]2[C@@H]3CC=C4c5sc(Nc6ncccc6C)nc5CC[C@]4(C)[C@H]3CC[C@@]21C"
  growth, %: -55.9
- INPUT SMILES: "CCN(CC)S(=O)(=O)c1ccc(-c2nc(C(Cl)Cl)nc3cc(C)nn23)cc1"
  growth, %: 4.27
- INPUT SMILES: "O=C(/C=C/c1ccc(Cl)c(Cl)c1)Nc1ncc(Cc2ccc(Cl)c(Cl)c2)s1"
  growth, %: -27.4
- INPUT SMILES: "CCOC(=O)c1cnc2c(-c3ccc(Cl)c(Cl)c3)cnn2c1"
  growth, %: 60
- INPUT SMILES: "C#CCN(C)CCCOc1ccc(NC(=O)CCCCCCCCC(=O)NO)cc1Cl"
  growth, %: 72.9
- INPUT SMILES: "COc1ccc(-c2cc(-c3ccc(N4CCOCC4)cc3)n3c(n2)nc2ccccc23)cc1OC"
  growth, %: 93.1
- INPUT SMILES: "N#Cc1nc(-c2ccc(Cl)cc2)oc1N1CCC(S(=O)(=O)N2CCOCC2)CC1"
  growth, %: 107
- INPUT SMILES: "C#C[C@]1(O)CC[C@H]2[C@@H]3CC=C4c5sc(N(C)c6ccccc6)nc5CC[C@]4(C)[C@H]3CC[C@@]21C"
  growth, %: 54.3
